assay: NCI Yeast Anticancer Drug Screen. Data for the bub3 strain (AID 167); details: S. cerevisiae bub3 mutant strain, at 50.0 µM, stronger effect = higher value
The panel holds about 79,000 compounds, 15% with a hit somewhere; the sample as a whole holds those more often.
Reported growth inhibition values are given for each entry in this list.
Write it as a number; the unit % goes unstated.

Illustrative cases are given below, each with its answer.
> print(dat)
                                  compound  value.reported
1           CCN(CCO)CC(=O)c1ccc(Cl)c(Cl)c1            16.1
2                C/C=C/C(=O)Nc1cc(Cl)ccc1C             9.4
3  O=S(CCO)c1ccc(Cl)cc1 (stereo not given)            2.75

Turning now to a further record.
Given the entry O=C(O)c1c(Cl)c(Cl)c(Cl)c(C(=O)O)c1Cl , report its measured growth inhibition. 5.85

* * *

Reported growth inhibition values are given for each entry in this list.
assay: NCI Yeast Anticancer Drug Screen. Data for the sgs1 mgt1 strain (AID 161);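 note: 0% = growth of cultures given vehicle only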; conditions: S. cerevisiae sgs1 mgt1 strain, at 50.0 µM, stronger effect = higher value
The panel holds about 79,000 compounds, 15% with a hit somewhere; the sample as a whole holds those more often.
Write it as a number; the unit % goes unstated.

> print(dat)
                                   compound  value.reported
1  N#CC(OC(=O)c1cccc(C(=O)OC(C#N)(C(F)(F)F)C(F)(F)F)c1Sc1ccccc1)(C(F)(F)F)C(F)(F)F           -10.1
2               CCO/C=N\c1c(C#N)c(CC#N)nn1C           -8.65
3  CCOCC1c2ccccc2CCN1Cc1c[nH]c2ccccc12 (configuration not stated)           -2.85

Given the entry Oc1ccc(-c2cc(-c3cc(-c4ccc(O)cc4)no3)on2)cc1 , report its measured growth inhibition. -10.8

Given the entry CCOC(=O)Nc1cc(Nc2ccc(Cl)cc2)c2nc(-c3ccc(Cl)cc3)c(-c3ccc(Cl)cc3)nc2n1 , report its measured growth inhibition. 36.1

Given the entry O=S(=O)(O)CCCCCO , report its measured growth inhibition. -15.7

Given the entry Cc1cc(C)c(C(=O)c2cccc(Cl)c2)c(C)c1 , report its measured growth inhibition. 5.55

Given the entry Cc1ccc(SCC(=O)O)c(C)c1 , report its measured growth inhibition. 18.1

Given the entry CN(C)Cc1ccccc1O , report its measured growth inhibition. -3.6

Given the entry O=C(O)/C=C/c1ccncc1 , report its measured growth inhibition. -7.15

Given the entry CCOC(=O)/C=C(\CC(=O)OCC)Nc1ccc(OC)cc1 , report its measured growth inhibition. 4.1

Given the entry CSc1n[nH]c(NC(=O)c2ccccc2Br)n1 , report its measured growth inhibition. 29.4

* * *

test: NCI Yeast Anticancer Drug Screen. Data for the cln2 rad14 strain (AID 165);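 note: 0% = growth equal to vehicle treated cultures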; conditions: S. cerevisiae cln2 rad14 strain, at 50.0 µM, stronger effect = higher value
About 79,000 compounds went through this panel and 15% of them were active in at least one assay; those are over-represented in the sample as a whole.
Reported growth inhibition values are given for each entry in this list.
Write it as a number; the unit % goes unstated.

Illustrative cases are given below, each with its answer.
> print(dat)
                                   compound  value.reported
1  S=C(Nc1ccccc1)Nc1nc(-c2ccccc2)c(N=Nc2ccccc2)s1            10.1
2      N#C/C(=C\NC(N)=S)C(=O)c1ccc2ccccc2c1            27.5
3  CNC(=O)/C=C/C1=CN2C(=O)c3ccc(C)c(O)c3NC(OC)C2C1 (stereo unspecified)            92.6
4     Cc1[nH]c2ccccc2c1C(=O)Cc1ccc(Cl)cc1Cl           -4.35
5  ClC(Cl)(Cl)CC(Br)c1ccccc1 (stereo unspecified)           -22.9

Turning now to a further record.
Given the entry CC1C2(C)OC(=N)C(C#N)(C(c3ccccc3)O2)C1(C#N)C#N (stereo unspecified) , report its measured growth inhibition. 6.25

* * *

assay: NCI Yeast Anticancer Drug Screen. Data for the mlh1 rad18 strain (AID 175); details: S. cerevisiae mlh1 rad18 strain growth inhibition; at 50.0 µM; stronger effect = higher value
The panel holds about 79,000 compounds, 15% with a hit somewhere; the sample as a whole holds those more often.
Reported growth inhibition values are given for each entry in this list.
Write it as a number; the unit % goes unstated.

Illustrative cases are given below, each with its answer.
> print(dat)
                                   compound  unit.abbreviation  value.reported
1    CCOc1ccc(C2=C/C(=C/c3cccs3)C(=O)O2)cc1                  %            -5.9
2  COc1cc(C(=O)NNC(=O)C2CCC(=O)N2Cc2ccccc2)cc(OC)c1OC (stereo unspecified)                  %            28.4
3    COc1c(NC(=O)CC(C)=O)cccc1NC(=O)CC(C)=O                  %           -11.3
4  O=c1[nH]c(=O)n(C2CC(O)C(CO)O2)cc1NN=NCCCc1ccccc1 (stereo unspecified)                  %           -32.5

Given the entry Cc1cncc(C)c1P(=O)(O)O , report its measured growth inhibition. 3.65

Given the entry O=C(NC(=O)c1c(F)cccc1F)Nc1cccc(C(F)(F)F)c1 , report its measured growth inhibition. 10.7

* * *

Reported growth inhibition values are given for each entry in this list.
assay: NCI Yeast Anticancer Drug Screen. Data for the mec2-1 strain (AID 157); conditions: S. cerevisiae mec2-1 strain, at 50.0 µM, stronger effect = higher value
About 79,000 compounds went through this panel and 15% of them were active in at least one assay; those are over-represented in the sample as a whole.
Write it as a number; the unit % goes unstated.

Illustrative cases are given below, each with its answer.
> print(dat)
                                   compound      quantity.kind  unit.abbreviation  value.reported
1  C/C(CC(=O)Nc1ccc(NC(=O)/C(C)=N/NS(=O)(=O)c2ccc(C)cc2)cc1)=N\NS(=O)(=O)c1ccc(C)cc1  growth inhibition                  %            2.95
2  CO[C@H]1C=C[C@]23c4cc5c(cc4CN(CC2O)[C@@H]3C1)OCO5 (stereo partly specified)  growth inhibition                  %           -11.7
3  COC(=O)C1CC(=O)N(C)c2sc(C)c(C)c2C1=O (stereo unspecified)  growth inhibition                  %            94.5
4  O=C1CCC(c2ccccc2)(C2CCN(Cc3ccc(F)cc3)CC2)C(=O)N1 (stereo unspecified)  growth inhibition                  %            4.85
5  COC(=O)c1c([N+](=O)[O-])ncn1C1CC(OC(C)=O)C(COC(C)=O)O1 (stereo unspecified)  growth inhibition                  %            -4.9

Given the entry ClCC#CCCl , report its measured growth inhibition. -10.9

Given the entry O=c1nc(NC2CC2)ccn1C1OC(CO)C(O)C1O (stereo unspecified) , report its measured growth inhibition. -4.25

Given the entry Nc1cc(Cl)c(F)cc1Cl , report its measured growth inhibition. 0.25

Given the entry O=CCC(=O)c1ccc(Br)cc1 , report its measured growth inhibition. 3.15

Given the entry O=c1c(F)cn2c(=O)n1CCCCCCCn1c(=O)c(F)cn(c1=O)CCCCCCC2 , report its measured growth inhibition. -24.4

Given the entry Cc1cccc(NC(=O)Nc2cccc(C)c2)c1 , report its measured growth inhibition. -2.95

* * *

experiment: NCI Yeast Anticancer Drug Screen. Data for the cln2 rad14 strain (AID 165);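 note: 0% = growth equal to vehicle treated cultures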; details: S. cerevisiae cln2 rad14 strain, at 50.0 µM, stronger effect = higher value
This is part of a sample that, as a whole, favours compounds with a hit. Of some 79,000 tested, about 15% had one in any assay.
Reported growth inhibition values are given for each entry in this list.
Write it as a number; the unit % goes unstated.

Illustrative cases are given below, each with its answer.
> print(dat)
                                   molecule      quantity.kind  value.reported
1  OCC(O)C(OC1OC(CO)C(O)C(O)C1O)C(O)c1cnn(-c2ccccc2)n1 (centres undefined)  growth inhibition           -14.7
2  NS(=O)(=O)c1ccc(NC(=O)CC(=O)c2ccccc2)cc1  growth inhibition            0.35
3    Cc1cc(=O)oc2c(C)c3oc4c(c3cc12)CN(C)CC4  growth inhibition              20
4  O=C(/C=C\c1ccc(/C=C\C(=O)c2ccccc2O)cc1)c1ccccc1O  growth inhibition           -3.75

Given the entry O=[N+]([O-])c1ccc(-c2csc(Nc3ccccn3)n2)o1 , report its measured growth inhibition. 31.4

Given the entry COc1ccc2nc(CC(C)C)c3c(c2c1)-c1ccccc1C3=O , report its measured growth inhibition. -12.2

Given the entry CCCOC1NC(=O)Oc2ccccc21 (centres undefined) , report its measured growth inhibition. -30.4

Given the entry COc1cccc(/C=C(\NC(C)=O)c2nc3ccc(Cl)cc3[nH]2)c1 , report its measured growth inhibition. 2.15

Given the entry NC(=O)C(=O)C1CCC2=C(Sc3ccccc3N2)C1=O (centres undefined) , report its measured growth inhibition. 30.1

Given the entry Cc1nc(C#N)c(=N)n(CCCO)c1-c1ccccc1 , report its measured growth inhibition. -28.5

Given the entry CC(C)(C)C1CCC(C2CC(C(C)(C)C)CCC2=O)CC1 (centres undefined) , report its measured growth inhibition. 5.15

Given the entry CC(C)(C)OC(=O)Cn1ncn(NC(=O)Cc2ccccc2)c1=O , report its measured growth inhibition. -56.2

Given the entry CCCCS/C=C\C(=O)OCC , report its measured growth inhibition. -44

Given the entry O=S1(=O)C(c2ccccc2)C(N2CCCCC2)C1C1CC2c3ccccc3C1c1ccccc12 (centres undefined) , report its measured growth inhibition. -28

Given the entry CC(/C=C/C(=O)c1ccccc1)=C\C=N\N(C)c1ccccc1 , report its measured growth inhibition. -40.8

Given the entry CC(=O)c1c(C)cc2cccc(OC3OC(CO)C(O)C(O)C3O)c2c1O (centres undefined) (tested in a mixture with another compound) , report its measured growth inhibition. 0

Given the entry Cc1nc2ccccn2c1N=Nc1ccc(C(=O)NN)cc1 , report its measured growth inhibition. 10.8

Given the entry CC(C)(C)C(=O)CN , report its measured growth inhibition. -71

Given the entry O=C1C(CN2CCCCC2)CCC1CN1CCCCC1 (centres undefined) , report its measured growth inhibition. 9.95

Given the entry CCCCn1c(N)n[nH]c1=S , report its measured growth inhibition. -52.5

Given the entry CC1CC(C)(C)OC(c2ccc(Cl)cc2)O1 (centres undefined) , report its measured growth inhibition. -52.5

Given the entry CSc1ccc(OC(=O)C(C)NC(=O)C(CO)NC(=O)OCc2ccccc2)cc1 (centres undefined) , report its measured growth inhibition. -2

Given the entry C/C=C/C1N(C)CCCN1C , report its measured growth inhibition. 18

Given the entry ClC1=C(Cl)C2(Cl)C3C(CC4C3C3(Cl)C(Cl)=C(Cl)C4(Cl)C3(Cl)Cl)C1(Cl)C2(Cl)Cl (centres undefined) , report its measured growth inhibition. -32.1
